Molecular target: UniProt P05067
Assay: Inhibition of self-induced amyloid beta (1-40) aggregation by thioflavin T formation assay
Endpoint label: IC50 (µM)
# value in µM; strip the unit string

Requested read-out: IC50. Entry: `CCN(CCCCCCN1C(=O)c2ccc3c4c(ccc(c24)C1=O)C(=O)N(CCCCCCN(CC)Cc1ccccc1OC)C3=O)Cc1ccccc1OC`
9.69

----------
Target: Amyloid-beta precursor protein (Homo sapiens, UniProt P05067)
Sequence (P05067 whole entry): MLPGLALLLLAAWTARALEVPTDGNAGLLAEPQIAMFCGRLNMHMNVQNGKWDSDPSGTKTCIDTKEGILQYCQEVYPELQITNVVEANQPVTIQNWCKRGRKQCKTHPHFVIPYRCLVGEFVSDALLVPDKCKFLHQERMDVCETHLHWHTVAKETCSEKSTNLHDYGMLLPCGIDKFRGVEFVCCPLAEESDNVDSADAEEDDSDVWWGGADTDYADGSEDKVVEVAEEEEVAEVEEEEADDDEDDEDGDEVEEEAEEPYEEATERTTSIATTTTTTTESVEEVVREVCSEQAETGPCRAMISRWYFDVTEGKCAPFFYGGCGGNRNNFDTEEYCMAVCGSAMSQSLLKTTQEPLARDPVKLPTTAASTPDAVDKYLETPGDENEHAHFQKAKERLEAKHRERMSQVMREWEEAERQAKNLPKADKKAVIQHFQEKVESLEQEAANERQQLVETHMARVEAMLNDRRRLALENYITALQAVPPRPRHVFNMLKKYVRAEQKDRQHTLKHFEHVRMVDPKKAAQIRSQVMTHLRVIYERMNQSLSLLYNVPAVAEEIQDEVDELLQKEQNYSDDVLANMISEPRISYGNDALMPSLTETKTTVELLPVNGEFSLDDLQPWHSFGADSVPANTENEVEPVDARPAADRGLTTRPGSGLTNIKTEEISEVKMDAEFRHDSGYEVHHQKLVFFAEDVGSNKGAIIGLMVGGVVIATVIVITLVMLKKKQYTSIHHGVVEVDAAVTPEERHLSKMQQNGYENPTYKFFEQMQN
Test: Inhibition of self-induced amyloid beta (1-40) aggregation at 10 uM by thioflavin T formation assay
# key: entry, value: inhibition
# value in %; strip the unit string

- Molecular string: "COc1ccccc1CN(C)CCCCCC(=O)N(C)CCCCCCCCN(C)C(=O)CCCCCN(C)Cc1ccccc1OC"
  Units text: "%"
  inhibition: 20.3

Consider the record given below.
Record lookup: for Amyloid-beta precursor protein (Homo sapiens, UniProt P05067), what inhibition belongs to `CCN(CCCCCCN1CC(=O)N(CCCCCCN(CC)Cc2ccccc2OC)CC1=O)Cc1ccccc1OC` ?
4.8

----------
Target: Cholinesterase (Homo sapiens)
Sequence (P06276 whole entry): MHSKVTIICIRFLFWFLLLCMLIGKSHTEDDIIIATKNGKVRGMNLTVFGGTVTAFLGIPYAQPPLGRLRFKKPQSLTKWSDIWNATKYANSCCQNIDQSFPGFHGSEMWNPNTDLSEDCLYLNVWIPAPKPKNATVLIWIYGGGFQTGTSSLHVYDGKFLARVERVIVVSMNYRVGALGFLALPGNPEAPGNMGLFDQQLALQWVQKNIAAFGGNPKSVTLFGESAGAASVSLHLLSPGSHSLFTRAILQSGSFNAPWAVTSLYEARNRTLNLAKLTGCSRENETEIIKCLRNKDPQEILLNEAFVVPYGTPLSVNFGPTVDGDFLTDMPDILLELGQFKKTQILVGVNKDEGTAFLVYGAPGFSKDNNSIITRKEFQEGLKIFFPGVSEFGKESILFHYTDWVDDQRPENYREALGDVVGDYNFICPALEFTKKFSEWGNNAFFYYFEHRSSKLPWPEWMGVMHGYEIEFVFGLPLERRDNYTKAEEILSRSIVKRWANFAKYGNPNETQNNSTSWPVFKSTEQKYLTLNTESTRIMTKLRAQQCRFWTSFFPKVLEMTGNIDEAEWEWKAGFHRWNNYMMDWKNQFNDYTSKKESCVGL
Assay: Inhibition of human serum BChE by Ellman's assay
# key: entry, value: IC50
# value in µM; strip the unit string

- Compound: "CCN(CCCCCCN1CCN(CCCCCCN(CC)Cc2ccccc2OC)C(=O)C1=O)Cc1ccccc1OC"
  Units text: "µM"
  IC50: 10.3
- Compound: "CCN(CCCCCC(=O)N[C@H]1CCCC[C@@H]1NC(=O)CCCCCN(CC)Cc1ccccc1OC)Cc1ccccc1OC (racemic)"
  Units text: "µM"
  IC50: 36.8
- Compound: "CCN(CCCCCC(=O)N1Cc2ccc3c4c(ccc(c24)C1)CN(C(=O)CCCCCN(CC)Cc1ccccc1OC)C3)Cc1ccccc1OC"
  Units text: "µM"
  IC50: 1.04

Record lookup: for Cholinesterase (Homo sapiens), what IC50 belongs to `CCN(CCCCCCn1c(=O)c(=O)n(CCCCCCN(CC)Cc2ccccc2OC)c2ccccc21)Cc1ccccc1OC` ?
0.0958

----------
Target: Amyloid-beta precursor protein (Homo sapiens)
Assay: Inhibition of self-induced amyloid beta (1-40) aggregation at 10 uM by thioflavin T formation assay
Endpoint label: inhibition

// solved cases for inhibition follow
- Molecular string: "CCN(CCCCCCN1C(=O)c2ccc(-c3ccc4c(c3)C(=O)N(CCCCCCN(CC)Cc3ccccc3OC)C4=O)cc2C1=O)Cc1ccccc1OC"
  Test target: "Amyloid-beta precursor protein (Homo sapiens)"
  inhibition: "16.5%"
- Molecular string: "CCN(CCCCCCn1c(=O)c2cc3c(=O)n(CCCCCCN(CC)Cc4ccccc4OC)c(=O)c3cc2c1=O)Cc1ccccc1OC"
  Test target: "Amyloid-beta precursor protein (Homo sapiens)"
  inhibition: "< 5%"
- Molecular string: "CCN(CCCCCCN1C(=O)c2cccc3cccc(c23)C1=O)Cc1ccccc1OC"
  Test target: "Amyloid-beta precursor protein (Homo sapiens)"
  inhibition: "< 5%"
- Molecular string: "CCN(CCCCCC(=O)N1CCN(C(=O)CCCCCN(CC)Cc2ccccc2OC)CC1)Cc1ccccc1OC"
  Test target: "Amyloid-beta precursor protein (Homo sapiens)"
  inhibition: "< 5%"
- Molecular string: "CCN(CCCCCCN1C(=O)c2ccc3c4c(ccc(c24)C1=O)C(=O)N(CCCCCCN(CC)Cc1ccccc1OC)C3=O)Cc1ccccc1OC"
  Test target: "Amyloid-beta precursor protein (Homo sapiens)"
  inhibition: "54.5%"
- Molecular string: "CCN(CCCCCCn1c(=O)c(=O)n(CCCCCCN(CC)Cc2ccccc2OC)c2ccccc21)Cc1ccccc1OC"
  Test target: "Amyloid-beta precursor protein (Homo sapiens)"
  inhibition: "8.8%"

Requested read-out: inhibition. Entry: `CCN(CCCCCC(=O)N1CCC(C2CCN(C(=O)CCCCCN(CC)Cc3ccccc3OC)CC2)CC1)Cc1ccccc1OC`
13.7%

Requested read-out: inhibition. Entry: `CCN(CCCCCC(=O)N1Cc2ccc3c4c(ccc(c24)C1)CN(C(=O)CCCCCN(CC)Cc1ccccc1OC)C3)Cc1ccccc1OC`
12.7%
